Taken from ChEMBL document CHEMBL1141416.

test system: Rattus norvegicus; assay: Cmax in Sprague-Dawley rat after 6 hrs at 10 mg/kg, po; format: ADME, organism-based; parameters: dose 10 mg/kg, route oral; details: in vivo, 6 h
ENDPOINT NAME: Cmax (nM)
Write the number in nM without appending the unit.

Quick one: Cmax of `CC(=O)c1cc(S(C)(=O)=O)cc2c3c(n(Cc4ccc(Cl)cc4)c12)[C@@H](CC(=O)[O-])CC3.[Na+]` ? 600

###

test: Volume of distribution in Sprague-Dawley rat at 10 mg/kg, po and 5 mg/kg, iv; format: ADME, organism-based; conditions: in vivo
This listing pairs compounds with measured Vdss.
Use Not_given as the unit, but write only the number.

Some compounds with recorded Vdss:
Which measured Vdss value corresponds to `CC(=O)c1cc(F)cc2c3c(n(Cc4ccc(Cl)cc4)c12)[C@@H](CC(=O)[O-])CC3.[Na+]` ? 0.5

Please do the same for CC(O)c1cc(S(C)(=O)=O)cc2c3c(n(Cc4ccc(Cl)cc4)c12)[C@@H](CC(=O)[O-])CC3.[Na+] (stereo not given in full) as well. 0.8

Entry `CS(=O)(=O)c1cc(F)cc2c3c(n(Cc4ccc(Cl)cc4)c12)[C@@H](CC(=O)[O-])CC3.[Na+]` please 0.5

Next entry: `CC(=O)c1cc(S(C)(=O)=O)cc2c3c(n(Cc4ccc(Cl)cc4)c12)[C@@H](CC(=O)[O-])CC3.[Na+]` 0.7

Kindly review the next compound as well.
Param item = `O=C([O-])C[C@H]1CCc2c1n(Cc1ccc(Cl)cc1)c1c(Br)cc(F)cc21.[Na+]` ; retrieve measured Vdss. 0.4

###

IC50: recorded values
assay: Activity at human TP receptor in platelet rich plasma assessed as inhibition […]-induced platelet aggregation
Number only, in µM; omit the unit.

What value of measured IC50 is listed for CC(O)c1cc(S(C)(=O)=O)cc2c3c(n(Cc4ccc(Cl)cc4)c12)[C@@H](CC(=O)O)CC3 (some centres not stated) ? 43

We now examine a further compound.
Given the compound `CC(=O)c1cc(S(C)(=O)=O)cc2c3c(n(Cc4ccc(Cl)cc4)c12)[C@@H](CC(=O)O)CC3` , what is its reported IC50? 8.4

###

Some molecules, each annotated with its measured Activity.
system: Hepatocyte; assay: Protein binding in human hepatocyte after 2 hrs at 10 uM; assay type: ADME, cell-based; conditions: hepatocytes
Express your answer in pmol/mg/h, writing the number without its unit.

Would you kindly share the measured Activity for `CC(=O)c1cc(F)cc2c3c(n(Cc4ccc(Cl)cc4)c12)[C@@H](C[14C](=O)O)CC3` ? 16

Same question for `O=[14C](O)C[C@H]1CCc2c1n(Cc1ccc(Cl)cc1)c1c(Br)cc(F)cc21` please. 33

New cases:
Fill in the blank: the reported Activity of `[3H]C([3H])([3H])S(=O)(=O)c1cc(C(C)=O)c2c(c1)c1c(n2Cc2ccc(Cl)cc2)[C@@H](CC(=O)O)CC1` is ____. 5

###

test: Metabolic stability in rat hepatocytes after 2 hrs at 50 uM; format: ADME, cell-based, Hepatocyte; settings: read-out: Stability
remaining at 2 h, 50 µM vs 40%: less than gives rule met; not less than gives rule not met.

The following compounds have reported results that may help.
remaining at 2 h, 50 µM strictly < 40% for this compound? `CC(=O)c1cc(S(C)(=O)=O)cc2c3c(n(Cc4ccc(Cl)cc4)c12)[C@@H](CC(=O)O)CC3` rule not met

Also `CC(=O)c1cc(F)cc2c3c(n(Cc4ccc(Cl)cc4)c12)[C@@H](CC(=O)O)CC3` ? rule met

Subsequent entry: CC(O)c1cc(S(C)(=O)=O)cc2c3c(n(Cc4ccc(Cl)cc4)c12)[C@@H](CC(=O)O)CC3 (stereo not given in full) rule not met

Can you handle CS(=O)(=O)c1cc(F)cc2c3c(n(Cc4ccc(Cl)cc4)c12)[C@@H](CC(=O)O)CC3 [LAROPIPRANT] next? rule met

Next:
Decide: remaining at 2 h, 50 µM of `O=C(O)C[C@H]1CCc2c1n(Cc1ccc(Cl)cc1)c1c(Br)cc(F)cc21` strictly below 40%? rule not met

###

# bioavailability per record follows
test: Bioavailability in Sprague-Dawley rat at 10 mg/kg, po and 5 mg/kg, iv; assay type: ADME, organism-based; conditions: in vivo
Could you give me the number in %? Just the number is fine.

Use the examples below as a reference point.
Entry `CC(=O)c1cc(F)cc2c3c(n(Cc4ccc(Cl)cc4)c12)[C@@H](CC(=O)[O-])CC3.[Na+]` : reported bioavailability = ? 52

Could you do the same for `CS(=O)(=O)c1cc(F)cc2c3c(n(Cc4ccc(Cl)cc4)c12)[C@@H](CC(=O)[O-])CC3.[Na+]` , please? 79

New cases:
Consider the molecule CC(O)c1cc(S(C)(=O)=O)cc2c3c(n(Cc4ccc(Cl)cc4)c12)[C@@H](CC(=O)[O-])CC3.[Na+] (stereo not given in full) and give its measured bioavailability. 8

Item: `CC(=O)c1cc(S(C)(=O)=O)cc2c3c(n(Cc4ccc(Cl)cc4)c12)[C@@H](CC(=O)[O-])CC3.[Na+]` 128

Let us now turn to `O=C([O-])C[C@H]1CCc2c1n(Cc1ccc(Cl)cc1)c1c(Br)cc(F)cc21.[Na+]` 41

###

assay: Tmax in Sprague-Dawley rat biliary fluid by bile duct cannulation study at 5 mg/kg, iv; type: ADME, organism-based; parameters: dose 5 mg/kg, route intravenous
ENDPOINT NAME: Tmax (h)
Give the quantity in h, number only.

A selection of reference data follows.
Give the measured Tmax of `CC(=O)c1cc(S(C)(=O)=O)cc2c3c(n(Cc4ccc(Cl)cc4)c12)[C@@H](CC(=O)[O-])CC3.[Na+]` . 0

Please answer likewise for `CS(=O)(=O)c1cc(F)cc2c3c(n(Cc4ccc(Cl)cc4)c12)[C@@H](CC(=O)[O-])CC3.[Na+]` 0.5

Cool, now `CC(=O)c1cc(F)cc2c3c(n(Cc4ccc(Cl)cc4)c12)[C@@H](CC(=O)[O-])CC3.[Na+]` 2.5

Next up: CC(O)c1cc(S(C)(=O)=O)cc2c3c(n(Cc4ccc(Cl)cc4)c12)[C@@H](CC(=O)[O-])CC3.[Na+] (stereo not given in full) 0

In the following, a different compound is considered.
Given the compound `O=C([O-])C[C@H]1CCc2c1n(Cc1ccc(Cl)cc1)c1c(Br)cc(F)cc21.[Na+]` , what is its reported Tmax? 1

###

assay: Plasma concentration in sheep allergic rhinitis model after 30 mins at 0.1 mg/kg, iv
ENDPOINT NAME: concentration at 0.5 h (nM)
Give just the number in nM; leave the unit off.

Given the entry CS(=O)(=O)c1cc(F)cc2c3c(n(Cc4ccc(Cl)cc4)c12)[C@@H](CC(=O)O)CC3 [LAROPIPRANT] , report its measured concentration at 0.5 h. 670

###

biological target: Prostacyclin receptor (Homo sapiens, UniProt P43119); assay: Binding affinity to human IP receptor expressed in HEK293 cells; type: cell-based
Sequence (P43119 whole entry): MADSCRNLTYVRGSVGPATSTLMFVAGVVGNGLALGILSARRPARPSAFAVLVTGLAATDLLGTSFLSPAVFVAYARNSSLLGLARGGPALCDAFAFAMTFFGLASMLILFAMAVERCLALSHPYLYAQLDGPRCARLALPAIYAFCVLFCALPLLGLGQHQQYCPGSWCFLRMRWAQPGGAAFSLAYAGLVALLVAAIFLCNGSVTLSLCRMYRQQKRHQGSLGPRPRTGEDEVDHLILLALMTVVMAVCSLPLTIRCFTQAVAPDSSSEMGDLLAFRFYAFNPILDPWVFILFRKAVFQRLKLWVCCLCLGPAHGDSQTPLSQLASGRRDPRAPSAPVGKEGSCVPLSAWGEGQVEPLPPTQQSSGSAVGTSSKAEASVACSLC
ENDPOINT NAME: Ki (µM)
Return type: number; implicit unit µM.

What does the data say about its Ki? Entry: `CC(=O)c1cc(F)cc2c3c(n(Cc4ccc(Cl)cc4)c12)[C@@H](CC(=O)O)CC3` 14

###

target: Prostaglandin E2 receptor EP3 subtype (Homo sapiens); assay: Binding affinity to human EP3 receptor expressed in HEK293 cells; format: cell-based
Sequence (P43115 whole entry): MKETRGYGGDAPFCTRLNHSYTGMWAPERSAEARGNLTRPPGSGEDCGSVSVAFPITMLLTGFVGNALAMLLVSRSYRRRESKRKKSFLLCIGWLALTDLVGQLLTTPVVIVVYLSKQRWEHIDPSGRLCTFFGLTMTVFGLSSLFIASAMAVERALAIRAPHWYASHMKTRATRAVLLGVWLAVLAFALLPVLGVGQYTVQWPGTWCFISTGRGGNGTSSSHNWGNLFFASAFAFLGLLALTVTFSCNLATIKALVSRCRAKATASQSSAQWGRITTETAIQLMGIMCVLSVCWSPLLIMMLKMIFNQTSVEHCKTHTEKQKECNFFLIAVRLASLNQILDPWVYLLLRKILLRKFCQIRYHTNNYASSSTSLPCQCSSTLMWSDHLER
Here, each record is paired with measured Ki data.

Lab note: need Ki for `CC(=O)c1cc(F)cc2c3c(n(Cc4ccc(Cl)cc4)c12)[C@@H](CC(=O)O)CC3` on Prostaglandin E2 receptor EP3 subtype (Homo sapiens), anyone have it? 1200 nM

For the next question, use this compound.
Record lookup: for Prostaglandin E2 receptor EP3 subtype (Homo sapiens), what Ki belongs to `O=C(O)C[C@H]1CCc2c1n(Cc1ccc(Cl)cc1)c1c(Br)cc(F)cc21` ? 470 nM (antagonist)
